# test-details: yeast display, Sf9 membrane polyspecificity reagent, FACS + sequencing; frameworks hold sequencing errors
measured-quantity: polyreactivity (PSR sort gate)

> print(dat)
                              sequence.data      measured.value
1  QVQLVESGGGLVQAGGSLRISCAASGITYKEYAMGWYRQAPGKERELVAAISISGGSTYYADSVKGRFTISRDNAKNTFYLQMNSLKPEDTAVYFCAADYAEYEYGDYYWGQGTQVTVSS  low polyreactivity
2  QVQLVESGGGLVQAGGSLRLSCAASGSIISPNAMGWYRQAPGKERELVATISFSGGRTYYADSVKGLVTISRDNAKNTVYLQMNSLKPEDTAVYYCAKAYYYTDMDYWGQGTQVTVSS  low polyreactivity

====

# test-details: yeast display, Sf9 membrane polyspecificity reagent, FACS + sequencing; frameworks hold sequencing errors
measured-quantity: polyreactivity (PSR sort gate)

Known results for sequences:
sequence-data	polyreactivity (PSR sort gate)
QVHLVESGGGLVQAGGSLRLSCAASGNSFTGNAMGWYRQAPGKETELVAALSKRGGSTFYADSVKGRFTISRDNPKNTVYLQLNRLKPEDTAVYYCNALRRGVRDPYGYWGQGTQVTVSS	high polyreactivity
QVQLVESGGGLVQAGGSLRLSCAASGFIFLGNAMGWYRQAPGKERELVAAISSGGSTYADSVKGRFTISRDNAKNTVYLQMNSLKPEDTAVNYCAVDRAFRAQNYHEYDYWGQGTQVTVSS	low polyreactivity
QVQLVETGGGLVQAGGSLRLICAASASTFGYYAMGWYRQAPGKERELVAGIRYRGGSTSYADSVKGRFTISRDNAKNTVYLQLNSLKREDTAVYYCANGIYRGRTSSFRMGYWGQVTQVTVSS	low polyreactivity
QVQLVESWGGLVQAGGSLRLSCAASGRIINQYAMGWYRQAPGKERELVAAITLNGGSTYYADSVKGRFTISRDNAKNTVYLQMNSLKPEDTAVYYCNNRYTHYSRKGVSYPKYDYWGQGNQVTVSS	high polyreactivity
QVQLVESGGGLVQAGGTLRLSCADSGSTFTYNAMGWYRQAPGKERELVASISSGTTTYYADSVKGRFTISRDNAKNTVYLQMNSLKPEDTAVYYCAVDSWSRVQGWLAHNYDYWGQGTQVTVSS	low polyreactivity
QVQLVESGGGLVQAGGSLRLSCAASGSIFFYNTMGWYRQAPGKERELVARISRSGGSTYYADSVKGRFTISRDNAKNTVYLQMNSLKPEDTAVYYCAARSAPWRYRYYKPYYYWGQGTQVTVSS	high polyreactivity
QVQLVESGGGLVQAGGSLRLSCHASGYTFYVYALGWYRQPPGKERELVAAIGGGSTNYADSVKGRFTISRDNAKNTVYLQMNSLKPEDTAVYYCAARRYYKFYYWGQGTQVTVSS	high polyreactivity
QVQLVESGGGLVQAGGSLRLSCDASGLIFRPYARGWFRQAPGKERELVAAITSGGSTDYADSVKGRFTISRDNAKNTVYLLMNSLKPADTAVYYCNADIYPHDGYPWQGDYDYWGQGTQVTVSS	low polyreactivity

Memo: QVQLVESWGGLDQAGGSLRLSCAASGRILRTYAMGWYRQAPGKERELVAAITWSGGSTYYADSVKGRFTISRDNAKNTVYLQMNSLKPEDTAVYDCNALTPGYRIYDYWGQGTQVTVSS , reported polyreactivity (PSR sort gate): high polyreactivity

Memo: QVHLVESGGGLVQAGGSLRLSCAASGGIFKQYAMGLYRQAPGKERDLVAAITWSGGSTYYADSVKGRFTISRDNAKNTVYLQMNRLKPVDTAVYYCAADRRYLDRDKHRYGYWGQGTQVTVSS , reported polyreactivity (PSR sort gate): low polyreactivity

Memo: QDQLVESGGVLVQARGSLRLSCAASASTLPGYAMGWYRQAPGKERELVAAISSSGTSTYYADSVKGRFTISRDNAKNTVYLQMNSLKPEDTAVYYCAAEGYRWVTAYYDYDEDYWGQGTQVTVSS , reported polyreactivity (PSR sort gate): low polyreactivity
